Provenance of the data: patent US5541182A

systemTested: CCK-B receptor (Rattus norvegicus, UniProt P30553)
Construct: the whole brain was immediately excised from each of the cut heads and homogenized
Sequence (P30553 whole entry): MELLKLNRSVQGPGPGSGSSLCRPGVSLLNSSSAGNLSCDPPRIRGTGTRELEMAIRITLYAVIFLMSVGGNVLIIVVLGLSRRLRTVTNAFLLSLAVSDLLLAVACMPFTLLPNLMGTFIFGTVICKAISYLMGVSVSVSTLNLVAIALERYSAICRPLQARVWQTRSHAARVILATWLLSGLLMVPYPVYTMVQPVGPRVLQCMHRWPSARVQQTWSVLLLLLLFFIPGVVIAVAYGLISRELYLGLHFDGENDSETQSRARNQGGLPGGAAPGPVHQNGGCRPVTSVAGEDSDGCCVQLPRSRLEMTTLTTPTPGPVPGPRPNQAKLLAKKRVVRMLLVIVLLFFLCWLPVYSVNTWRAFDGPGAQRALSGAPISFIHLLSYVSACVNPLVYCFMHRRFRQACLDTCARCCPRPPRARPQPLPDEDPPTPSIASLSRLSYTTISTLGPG
methodNotes: Binding action upon CCK-B receptor ([125I]BH.CCK-8, rat whole brain membrane)
conditionNotes: [125I]BH.CCK-8, 25° C., 120 min, pH 6.5
measuredMetric: Ki

compound	Ki
Cc1cccc(NC(=O)NC2N=C(c3ccccc3)c3ccccc3N(CC(=O)c3ccccc3C)C2=O)c1 (stereo not drawn)	0.15 nM

Fill in: CCK-B receptor (Rattus norvegicus, UniProt P30553) Ki for Cc1ccc(C(=O)CN2C(=O)C(NC(=O)Nc3cccc(C)c3)N=C(c3ccccc3)c3ccccc32)cc1 (stereo not drawn) = 0.22 nM

Fill in: CCK-B receptor (Rattus norvegicus, UniProt P30553) Ki for Cc1cccc(NC(=O)NC2N=C(c3ccccc3)c3ccccc3N(CC(=O)c3sccc3C)C2=O)c1 (stereo not drawn) = 0.16 nM
